Subject Of Test: Phosphorylase b kinase gamma catalytic chain, liver/testis isoform (Homo sapiens) (UniProt P15735)
Sequence (P15735 whole entry, canonical isoform): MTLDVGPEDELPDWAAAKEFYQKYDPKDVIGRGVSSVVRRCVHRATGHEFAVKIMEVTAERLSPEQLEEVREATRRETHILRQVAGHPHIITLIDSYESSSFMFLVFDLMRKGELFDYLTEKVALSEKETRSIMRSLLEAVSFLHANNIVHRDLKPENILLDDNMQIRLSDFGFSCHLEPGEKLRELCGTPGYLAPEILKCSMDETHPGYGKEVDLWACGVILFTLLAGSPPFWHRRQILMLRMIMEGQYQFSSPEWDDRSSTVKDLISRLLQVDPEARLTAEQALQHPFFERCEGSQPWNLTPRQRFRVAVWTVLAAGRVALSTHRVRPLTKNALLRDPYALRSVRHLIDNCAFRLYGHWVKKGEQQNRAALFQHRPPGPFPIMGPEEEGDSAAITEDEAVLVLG
Details: at 1 µM;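 note: reported value is the mean inhibition of PHKG2 from the GSK_PKIS screening set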
Listed next: entries and their corresponding inhibition.
The reply should contain only the number, in %.

Prompt: Look up and report measured inhibition for this entry: Nc1nc(-c2cccc(Cl)c2)c(-c2ccc3ncccc3n2)s1
Response: 10.1

Prompt: Look up and report measured inhibition for this entry: NS(=O)(=O)c1ccc(N/N=C2\C(=O)Nc3ccc4ncccc4c32)cc1
Response: 14.1

Prompt: Look up and report measured inhibition for this entry: COc1cccc(-c2c[nH]c3c(N/N=C/c4ccncc4)ncnc23)c1
Response: 1.52

Prompt: Look up and report measured inhibition for this entry: O=S(=O)(CCNCc1ccc(-c2ccc3ncnc(Nc4ccc(OCc5cccc(F)c5)c(Cl)c4)c3c2)o1)c1ccccc1
Response: 7.71

Prompt: Look up and report measured inhibition for this entry: CCc1nn2ncccc2c1-c1ccnc(NC2CC2)n1
Response: 3.73
